Where do the numbers come from? From paper PMC11638003.

measured on: T1, Arabidopsis thaliana phytochrome B residues 1 to 982, AtPhyB (1-982) (Arabidopsis thaliana, UniProt P14713 1-982, phycocyanobilin chromophore, covalently bound)
T1 construct: the oligomeric state is not measured directly here; also called AtPhyB982; source: E. coli LOBSTR, purified (Co2+-NTA IMAC, anion exchange); plasmid also encodes Synechocystis sp. heme oxygenase 1 and PcyA
T1 sequence (looked up): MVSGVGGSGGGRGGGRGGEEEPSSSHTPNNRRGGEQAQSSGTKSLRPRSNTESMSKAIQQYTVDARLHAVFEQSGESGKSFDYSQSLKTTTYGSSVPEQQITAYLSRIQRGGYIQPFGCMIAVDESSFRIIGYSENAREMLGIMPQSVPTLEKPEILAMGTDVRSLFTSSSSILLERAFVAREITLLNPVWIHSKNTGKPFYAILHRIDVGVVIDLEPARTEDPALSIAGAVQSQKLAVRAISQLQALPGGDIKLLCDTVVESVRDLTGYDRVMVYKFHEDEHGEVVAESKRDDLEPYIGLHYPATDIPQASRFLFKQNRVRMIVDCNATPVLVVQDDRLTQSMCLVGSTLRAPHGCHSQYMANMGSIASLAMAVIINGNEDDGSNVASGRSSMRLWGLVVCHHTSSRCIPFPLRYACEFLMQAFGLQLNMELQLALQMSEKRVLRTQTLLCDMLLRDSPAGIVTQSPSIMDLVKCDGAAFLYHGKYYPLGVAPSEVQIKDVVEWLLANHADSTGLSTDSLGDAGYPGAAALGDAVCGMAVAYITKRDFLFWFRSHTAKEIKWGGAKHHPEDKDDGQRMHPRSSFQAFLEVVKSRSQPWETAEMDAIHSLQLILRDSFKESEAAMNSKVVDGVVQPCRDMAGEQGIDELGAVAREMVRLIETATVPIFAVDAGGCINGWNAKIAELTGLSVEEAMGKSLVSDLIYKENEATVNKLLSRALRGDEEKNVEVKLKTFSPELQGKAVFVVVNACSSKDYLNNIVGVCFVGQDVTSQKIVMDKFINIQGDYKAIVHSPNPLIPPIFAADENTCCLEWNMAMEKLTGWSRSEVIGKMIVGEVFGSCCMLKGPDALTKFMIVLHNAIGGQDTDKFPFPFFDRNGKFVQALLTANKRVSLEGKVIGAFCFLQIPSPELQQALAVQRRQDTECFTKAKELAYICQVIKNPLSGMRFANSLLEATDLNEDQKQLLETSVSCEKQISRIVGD
protocol notes: FRET or BRET; association kinetics at 15 °C after a 0.5-s pulse of red light (658 nm, 69 mW cm^-2, optical shutter); 20 nM PIF-mScarlet-I variant with 500 to 2,000 nM AtPhyB PCM, or 30 nM P6A-mScarlet-I with 750 to 2,500 nM AtPhyB (1-982); 50 mM Tris/HCl pH 8.0, 20 mM NaCl; pseudo-first-order, linear fit of koFR against the AtPhyB concentration; kaFR corrected for the Pfr fraction; Kd calculated from kdFR and kaFR …
measurement parameters: both partners purified
No end group written: not given here.
observable: pKd
Give bare numbers, as −log10 of the molar value.

-- ask Report pKd for DQEYMELVFENGQILAKGQRSNVSLHNQRTKSIMDLYEAE-{mScarlet‑I} (domain or fragment, Arabidopsis thaliana, UniProt Q8L5W7 14-53, looked up, mScarlet-I: GenBank APD76536; source: E. coli LOBSTR, purified (IMAC, SENP2 cleavage, second IMAC, optionally anion exchange); not shown: His6-SUMO, N-terminal, cleaved; mScarlet-I, C-terminal, kept) [P6A-mScarlet-I (Arabidopsis PIF6 residues 14 to 53, APB.A portion, fused to mScarlet-I)] please.
-- reply 5.98
